- STUDY SYSTEM: BRD4 (Homo sapiens)
- PROTOCOL SUMMARY: CURE-PRO-mediated BRD4 degradation, Western blot, HeLa cells
- Type: cell-based
- Parameters: endogenous in cells; host or cells: HeLa
- CONDITION DETAILS: 24 h, BRD monomer alone, Western blot
- Procedure: All cell lines were purchased from ATCC or DSMZ and grown at 37° C. with 5% CO2. […] HeLa, MCF7, or HCT116 cells (2.5-3×10^6) were treated for 24 hours with the indicated compounds solubilized in DMSO. […] The total protein concentrations were determined by Bradford Protein Assay and 10-20 μg of protein was loaded onto 4-15% Tris-Glycine gradient gels (Biorad). […]
MEASURED METRIC: BRD4 degradation, BRD ligand alone

stdin: Quick one: BRD4 degradation, BRD ligand alone of COc1ccc2c(c1)C(c1ccc(Cl)cc1)=N[C@@H](CC(=O)NCCOCCOCCOCCOCCNC(=O)c1ccc(O)c(O)c1)c1nnc(C)n1-2 ?
stdout: no degradation of BRD4

stdin: BRD4 degradation, BRD ligand alone lookup needed for COc1ccc2c(c1)C(c1ccc(Cl)cc1)=N[C@@H](CC(=O)NCCNC(=O)c1ccc(O)c(O)c1)c1nnc(C)n1-2 , thanks.
stdout: no degradation of BRD4

stdin: Requested read-out: BRD4 degradation, BRD ligand alone. Entry: COc1ccc2c(c1)C(c1ccc(Cl)cc1)=N[C@@H](CC(=O)NCCOCCOCCOCCNC(=O)c1ccc(O)c(O)c1)c1nnc(C)n1-2
stdout: no degradation of BRD4

stdin: Field request: BRD4 degradation, BRD ligand alone | item: CCNC(=O)C[C@@H]1N=C(c2ccc(Cl)cc2)c2cc(-c3ccc4cc(O)c(O)cc4c3)ccc2-n2c(C)nnc21
stdout: no degradation of BRD4

Others:
stdin: Record request: BRD4 degradation, BRD ligand alone value, item COc1ccc2c(c1)C(c1ccc(Cl)cc1)=N[C@@H](CC(=O)NCCNC(=O)Cc1ccc(O)c(O)c1)c1nnc(C)n1-2
stdout: no degradation of BRD4

stdin: // query BRD4 degradation, BRD ligand alone value for entry COc1ccc2c(c1)C(c1ccc(Cl)cc1)=N[C@@H](CC(=O)NCCc1ccc(O)c(O)c1)c1nnc(C)n1-2
stdout: no degradation of BRD4

stdin: Given the entry CCNC(=O)C[C@@H]1N=C(c2ccc(Cl)cc2)c2cc(OCCOCCNC(=O)c3ccc(O)c(O)c3)ccc2-n2c(C)nnc21 , report its measured BRD4 degradation, BRD ligand alone.
stdout: no degradation of BRD4
